ASSAY TARGET: T1, P3028 (VFDEFKPLVEEPQNLIK, SEQ ID NO: 185), His-tagged (human)
T1 construct: Synthetic fragment of human serum albumin (positions 397-413); used in solution as His-tagged peptide PGE73; also called PGE73; not shown: His-tag
T1 peptide: VFDEFKPLVEEPQNLIK
PROTOCOL TEXT: PEPSCAN ELISA; peptide on chip, His-P3028 added;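 further: peroxidase color development with ABTS and H2O2 substrate, OD405 imaged by CCD camera with image processing and taken as raw values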
The threshold is inclusive: RAMPO Score of exactly 400 rampo units counts as yes (1); values below receive no (0).

# example entries with known answers
[
  {
    "BINDER": "KKLDTHFVKLSLFTER [KKLDTHFVKLSLFTER (SEQ ID NO: 466)]",
    "CLASS ASSIGNMENT": "no (0)"
  },
  {
    "BINDER": "IKLDTFFVKLSLFTER [IKLDTFFVKLSLFTER (SEQ ID NO: 273)]",
    "CLASS ASSIGNMENT": "yes (1)"
  },
  {
    "BINDER": "KKLDTFFVSLSLFTER [KKLDTFFVSLSLFTER (SEQ ID NO: 511)]",
    "CLASS ASSIGNMENT": "no (0)"
  },
  {
    "BINDER": "KKLMTFFVKLSLFTER [KKLMTFFVKLSLFTER (SEQ ID NO: 423)]",
    "CLASS ASSIGNMENT": "no (0)"
  },
  {
    "BINDER": "KKLDTFFVKVSLFTER [KKLDTFFVKVSLFTER (SEQ ID NO: 343)]",
    "CLASS ASSIGNMENT": "yes (1)"
  }
]

Now for a further binder.
Query: Is it the case that KKLDTFFVKLSLFCER [KKLDTFFVKLSLFCER (SEQ ID NO: 520)] has RAMPO Score reaching or exceeding 400 rampo units?
Reply: no (0)
